Tested on: T-47D breast
Assay: NCI tumour cell line growth inhibition, 48 h
Reported property: TGI

# lookup: TGI of CCCCNC(=O)Cn1c2ccc(Br)cc2c2nc3ccccc3nc21
> 100 µM

# lookup: TGI of C=C(C)[C@@H]1CC[C@]2(C(=O)NS(=O)(=O)c3ccccc3)CC[C@]3(C)[C@H](CC[C@@H]4[C@@]5(C)CC[C@H](OC(=O)NS(=O)(=O)c6ccccc6)C(C)(C)[C@@H]5CC[C@]43C)[C@@H]12
7.37 µM

# lookup: TGI of CO[P@@]1(=O)O[C@@H](c2ccccc2)[C@H](O)[C@]1(O)c1ccccc1
> 100 µM

# lookup: TGI of CCn1c(-c2nonc2N)nc2c(N3CCCC3)nccc21
> 25 µM

###

Please provide measured TGI for the entries that follow.
Test system: RXF 393 renal
Assay: NCI tumour cell line growth inhibition, 48 h

# lookup: TGI of COc1cc2nccc(Oc3ccc(NC(=O)c4cn(C(C)C)c(=O)n(-c5ccc(F)cc5)c4=O)cc3F)c2cc1OC
> 100 µM

# lookup: TGI of O=C(/C=C/C12c3ccccc3C(c3ccccc31)C1C(=O)NC(=O)C12)c1ccccc1 (stereo not given)
2.94 µM

# lookup: TGI of COc1ccc([C@]23CCC4(OCC(C)(C)CO4)[C@H]4CON(O[C@H](O[C@@H]5CCCCC5C(C)(C)c5ccccc5)C2)[C@@H]43)cc1OC (stereo not given in full)
> 100 µM

# lookup: TGI of Cc1ccc(C(=O)NC2CC2)cc1-c1ccc2[nH]ncc2c1
> 25 µM

# lookup: TGI of O=[N+]([O-])c1ccc(-c2csc(=[N+]3CCCCC3)s2)cc1
> 100 µM

###

Test system: MDA-MB-435
Test: NCI tumour cell line growth inhibition, 48 h
Reported property: TGI (µM)
Dear colleague, please return just the value in µM, with no unit written.

# lookup: TGI of Cc1cc(O)c(-c2ccc([C@@H](C)CN(C)C)cc2)c2c1[nH]c(=O)c1sccc12
15.2

# lookup: TGI of C[C@H]1[C@H](C)CC[C@]2(C(=O)OC3OC(CO)C(O)C(O)C3O)CC[C@]3(C)C(=CC[C@@H]4[C@@]5(C)C[C@@H](O)[C@@H]6OC(=O)c7cc(O)c(O)c(O)c7-c7c(cc(O)c(O)c7O)C(=O)OC[C@@]6(CO)[C@@H]5CC[C@]43C)[C@H]12 (some centres undefined)
37.2

# lookup: TGI of CCN(Cc1c(F)cccc1Cl)c1ccc(CO)c(Cl)c1
24.3

###

Please provide measured GI50 for the entries that follow.

Value wanted: GI50 (U251 CNS) of entry CCN(CC)CCCCNc1c2ccc(Cl)cc2nc2ccc(OC)cc12
0.45 µM

Value wanted: GI50 (U251 CNS) of entry CC1SC(c2ccc(Cl)cc2Cl)N(NC(=O)C(O)c2ccccc2)C1=O (stereo not given)
61.4 µM

Value wanted: GI50 (U251 CNS) of entry CC(=O)[O-].N.N.N.N.[Co+3].[O-][Cl+3]([O-])([O-])[O-].[OH3+]
> 100 µM

Value wanted: GI50 (U251 CNS) of entry CS(=O)(=O)N(c1cc(-c2ccc3ncnc(Nc4ccc(F)c(Cl)c4)c3c2)cnc1Cl)S(C)(=O)=O
1.15 µM

Value wanted: GI50 (U251 CNS) of entry C1=CCCC=CCC1.C[PH+](C)C.C[PH+](C)C.C[PH+](C)C.[Cl-].[Ir]
46.2 µM
